System: MDA-MB-435
Assay: NCI tumour cell line growth inhibition, 48 h
Where a SMILES comes first, the peptide text is derived from it. [ ]: non-standard residue; d: D form. The star is where a group is joined. Bn2Val = CC(C)[C@@H](C(=O)*)N(Cc1ccccc1)Cc1ccccc1; NH(3,4-diMeO-benzyl) = COc1ccc(CN*)cc1OC; NMeV = CN[C@H](C(=O)O)C(C)C
Parameter: TGI. Scope: all listed entries.

Here's what some known entries look like.
COMPOUND | MEASURED METRIC | EXPERIMENTAL VALUE
N#CCc1nc(-c2cc3c(ccc4ccccc43)oc2=O)cs1 | TGI | > 100 µM
Cn1c(=O)cc(N2CCCC2)[nH]c1=O | TGI | > 100 µM
CC(CN)[C@@H]1CC[C@]2(CO)CC[C@]3(C)[C@H](CC[C@@H]4[C@@]5(C)CCC(N)C(C)(C)[C@@H]5CC[C@]43C)[C@@H]12 (stereo partly drawn) | TGI | 3.26 µM
N#CC(c1ccccc1)N(CCOCCOCCN(C(=O)c1cccc2ccccc12)C(C#N)c1ccccc1)C(=O)c1cccc2ccccc12 (stereo not drawn) | TGI | > 100 µM
COc1ccc(CNC(=O)[C@@H]2CCCN2C(=O)[C@@H]2CCCN2C(=O)[C@H](C(C)C)N(C)C(=O)[C@@H](NC(=O)[C@H](C(C)C)N(Cc2ccccc2)Cc2ccccc2)C(C)C)cc1OC (Bn2Val-V[NMeV]PP-{NH(3,4-diMeO-benzyl)}) | TGI | 39 µM

Per the records, this compound ( COc1ccc(C2=NN(C(=O)c3cccnc3)C(O)(c3cc(F)c(Cl)cc3Cl)C2)cc1OC (stereo not drawn) ) has TGI equal to 87.4 µM

Per the records, this compound ( Cc1nc2sc(C(=O)Nc3cccc(Br)c3)c(N)c2cc1C(O)c1ccccc1 (stereo not drawn) ) has TGI equal to 0.449 µM

Per the records, this compound ( CC1=CC(=O)c2ccc(C)cc2C1=O ) has TGI equal to 5.78 µM

----------
Parameter: GI50. Scope: all listed entries.
System: OVCAR-3 ovarian
Test: NCI tumour cell line growth inhibition, 48 h

Here's what some known entries look like.
COMPOUND | GI50
C=C(C)[C@@H]1CC[C@]2(C(N)=O)CC[C@]3(C)[C@H](CC[C@@H]4[C@@]5(C)C/C(=C/c6cccnc6)[C@H](O)C(C)(C)[C@@H]5CC[C@]43C)[C@@H]12 | 5020 nM
Cc1nn(C)c2cc(N(C)c3ccnc(Nc4cccc(S(N)(=O)=O)c4)n3)ccc12 | 8190 nM
C/C(=C\c1ccn(-c2ccc(N)cc2F)n1)[C@@H]1C[C@@H]2O[C@]2(C)CCC[C@H](C)[C@H](O)[C@@H](C)C(=O)C(C)(C)[C@@H](O)CC(=O)O1 | 16.6 nM
N#Cc1nn(-c2cc(=O)[nH]c3ccc(Br)cc23)c(N)c1C#N | > 100000 nM
CC(C)(C)c1cc(-c2nc3c(F)c(F)c(F)c(F)c3[nH]2)cc(C(C)(C)C)c1O | > 100000 nM
COc1cc2c3c(n(CCCN4CCCC(O)C4)c(=O)c2cc1OC)-c1cc2c(cc1C3=O)OCO2 (configuration not stated) | 2140 nM
COc1cc(N2CCC(N3CCN(C)CC3)CC2)ccc1Nc1ncc(Cl)c(Nc2ccccc2S(=O)(=O)C(C)C)n1 | 2220 nM
COc1ccc(C2CC(=O)c3c(O)c(OC)c(OC)c(OC)c3O2)cc1O (configuration not stated) | 62.7 nM
CCN(CC)CC[n+]1cc2cc(OC)c(OC)cc2c2ccc3cc4c(cc3c21)OCO4 | 960 nM
CCCCCCNCCCNc1c2ccccc2nc2cccc([N+](=O)[O-])c12 | 39.5 nM

Per the records, this compound ( Cc1ccc(NC(=O)c2cc3ccccc3cc2O)c(C)c1.Cc1ccc(NC(=O)c2cc3ccccc3cc2[O-])c(C)c1.[Ni+2] ) has GI50 equal to 4230 nM

Per the records, this compound ( COC(C)(C)[C@H](O)C(O)CC(C)[C@@H]1CCC23CC12CCC1[C@@]2(C)CCC(OC(C)=O)C(C)(C)C2CC(OC2OC(COC(C)=O)C(O)C(O)C2O)[C@]13C (some centres not stated) ) has GI50 equal to 4260 nM

Per the records, this compound ( Nc1c2ccccc2nc2ccccc12 (tested in a mixture with another compound) ) has GI50 equal to 2290 nM

Per the records, this compound ( C/C=C/C1=CN2C(=O)c3cc(OC4OC(C)C(NC)C(C)(O)C4O)c(C)c(O)c3N=C[C@@H]2C1 (some centres not stated) ) has GI50 equal to 203 nM

Per the records, this compound ( Nc1ccccc1C#Cc1ccccc1C#Cc1cnccn1 ) has GI50 equal to 9790 nM

Per the records, this compound ( Cc1c(-c2nnc(-c3cc(Cl)c(Cl)cc3Cl)o2)nnn1-c1ccnc2c(C(F)(F)F)cccc12 ) has GI50 equal to 27500 nM

Per the records, this compound ( COc1cc(C)c(NC(=O)CN(C)C)cc1Nc1nc(Nc2cccc(F)c2C(N)=O)c2cc[nH]c2n1 ) has GI50 equal to 682 nM

----------
Test system: OVCAR-4 ovarian
Test: NCI tumour cell line growth inhibition, 48 h; in the data active = GI50 below about 0.43 µM; inactive = the rest
Respond with a class label; see Y (active), N (inactive)

As a guide, the following entries are already answered.
SMILES ENTRY | ASSIGNED CLASS
O=S(=O)(Nc1ccccn1)c1ccc(N=Nc2ccc(O)c3ncccc23)cc1 | N
CCOCCOC[C@H]1CCCN(c2ccnc3sc(C(N)=O)c(N)c23)C1 | N
O=[N+]([O-])c1cc2c(c([N+](=O)[O-])c1)Nc1ccccc1O2 | N
CC(=O)[O][Bi]([c]1ccccc1)[c]1ccccc1 | N

Fill in: this test's call for Cc1ccc(NC(=O)c2cc3ccccc3cc2O)c(C)c1.Cc1ccc(NC(=O)c2cc3ccccc3cc2[O-])c(C)c1.[Ni+2] is ___ N

Fill in: this test's call for CCN(CC)CC[n+]1cc2cc(OC)c(OC)cc2c2ccc3cc4c(cc3c21)OCO4 is ___ N

Fill in: this test's call for Cc1cc2nc(C(Cl)Cl)nc(-c3ccccc3)n2n1 is ___ N

Fill in: this test's call for C/C(=C\c1ccn(-c2ccc(N)cc2F)n1)[C@@H]1C[C@@H]2O[C@]2(C)CCC[C@H](C)[C@H](O)[C@@H](C)C(=O)C(C)(C)[C@@H](O)CC(=O)O1 is ___ Y

Fill in: this test's call for Nc1nc(-c2ccc(Cl)cc2)cc(-c2ccccc2)c1-c1nc2ccccc2o1 is ___ N

Fill in: this test's call for Fc1cccc(-c2[nH]nc3nc(Nc4cccnc4)sc23)c1 is ___ N

Fill in: this test's call for Nc1nc(-c2ccccc2)cc(-c2ccc(Cl)cc2)c1-c1nc2ccccc2o1 is ___ N

Fill in: this test's call for C=C1C(=O)O[C@H]2[C@H]1CC/C(COC(=O)NCc1cc(OC)cc(OC)c1)=C\CC[C@@]1(C)O[C@@H]21 is ___ N

Fill in: this test's call for COc1ccc2nc(-c3cc4c([nH]c5ccccc54)c(-c4ccc(F)c(F)c4)n3)[nH]c2c1 is ___ N

----------
Tested on: HCT-116 colon
Assay: NCI tumour cell line growth inhibition, 48 h
Parameter: TGI. Scope: all listed entries.

Here's what some known entries look like.
MOLECULE | TGI
CCOC(=O)c1cc(C#N)[nH]c1-c1ccsc1 | > 100 µM
CCN(CC)CCCCC1CCN(CC(=O)N2c3cc(Cl)ccc3NC(=O)CC2C)CC1 (stereo not given) | > 100 µM
C[C@@H]1OCC2(CCN(c3cnc(Sc4ccnc(N)c4Cl)c(N)n3)CC2)[C@@H]1N | > 100 µM
COc1cc(C)c(NC(=O)CN(C)C)cc1Nc1nc(Nc2cccc(F)c2C(N)=O)c2cc[nH]c2n1 | 4.31 µM
O=C(NCCCCCCNC(=O)OCc1ccc2c(Cl)cc(Cl)c(O)c2n1)OCc1ccc2c(Cl)cc(Cl)c(O)c2n1 | 0.693 µM

Now let's try a different one.
Per the records, this molecule ( Nc1ncnc2c1ncn2C1CC(OC2CCCCO2)C(CO)O1 (stereo not given) ) has TGI equal to > 100 µM

----------
System: HCT-15 colon
Test: NCI tumour cell line growth inhibition, 48 h
MEASURED METRIC: GI50

Here's what some known entries look like.
COMPOUND | SYSTEM | GI50
CCN1CCN(c2ccc(Nc3ncc4ccc5ncn(C(C)C)c5c4n3)nc2)CC1 | HCT-15 colon | 0.0636 µM
Oc1c(CN2CCN(c3ccccc3F)CC2)cc(Br)c2cccnc12 | HCT-15 colon | 0.143 µM
CCOCCOC[C@H]1CCCN(c2ccnc3sc(C(N)=O)c(N)c23)C1 | HCT-15 colon | > 100 µM

Per the records, this compound ( COc1cnc2c(c1)C(=O)c1c-2n(CCCNC(C)C)c(=O)c2cc([N+](=O)[O-])ccc12 ) has GI50 equal to 0.124 µM

Per the records, this compound ( Nc1nc(-c2ccccc2)cc(-c2ccc(Cl)cc2)c1-c1nc2ccccc2o1 ) has GI50 equal to 10.4 µM

Per the records, this compound ( COc1ccc2nc(-c3cc4c([nH]c5ccccc54)c(-c4ccc(F)c(F)c4)n3)[nH]c2c1 ) has GI50 equal to 3.41 µM

Per the records, this compound ( Oc1c(I)cc(I)cc1CN(Cc1ccccn1)Cc1ccccn1 ) has GI50 equal to 0.453 µM

Per the records, this compound ( C=C1C(=O)O[C@H]2[C@H]1CC/C(COC(=O)NCc1cc(OC)cc(OC)c1)=C\CC[C@@]1(C)O[C@@H]21 ) has GI50 equal to 0.77 µM

Per the records, this compound ( CN1CCN(CC(=O)N2c3cccc4cccc(c34)N(C(=O)CN3CCN(C)CC3)C2c2cn(-c3ccccc3)nc2-c2cccc([N+](=O)[O-])c2)CC1 ) has GI50 equal to 1.98 µM

Per the records, this compound ( Fc1cccc(-c2[nH]nc3nc(Nc4cccnc4)sc23)c1 ) has GI50 equal to 0.948 µM

Data provenance: PubChem BioAssay (NCI)
